Overview of recorded melting point for various compounds

The examples below pair each entry with its known result.
1. CCCCn1c(C)c2c(OCC(=O)N/N=C/c3ccccc3O)nn(C)c(=O)c2c1C | 225 to 227 °C
2. Cc1c2c(OCC(=O)N/N=C/c3ccccc3O)nn(C)c(=O)c2c(C)n1-c1cccc(Cl)c1 | 230 to 232 °C
3. Cc1ccc(/C=N/NC(=O)COc2nn(C)c(=O)c3c(C)n(-c4ccccc4)c(C)c23)cc1 | 271 to 272 °C
4. CCCCn1c(C)c2c(OCC(=O)N/N=C/c3ccccc3)nn(C)c(=O)c2c1C | 210 to 212 °C
5. Cc1ccc(/C=N/NC(=O)COc2nn(C)c(=O)c3c(C)n(-c4cccc(Cl)c4)c(C)c23)cc1 | 248 to 250 °C
6. Cc1c2c(OCC(=O)N/N=C/c3ccccc3)nn(C)c(=O)c2c(C)n1-c1ccccc1 | 274 to 275 °C
7. Cc1c2c(OCC(=O)N/N=C/c3ccccc3O)nn(C)c(=O)c2c(C)n1-c1ccccc1 | 214 to 217 °C
8. Cc1c2c(OCC(=O)N/N=C/c3ccccc3)nn(C)c(=O)c2c(C)n1-c1cccc(Cl)c1 | 273 to 275 °C

Next:
Fill in the blank: the reported melting point of `CCCCn1c(C)c2c(OCC(=O)N/N=C/c3ccc(C)cc3)nn(C)c(=O)c2c1C` is ____.
209 to 211 °C

###

Target: human serum albumin (HSA) (Homo sapiens, UniProt P02768)
Sequence (P02768 25-609): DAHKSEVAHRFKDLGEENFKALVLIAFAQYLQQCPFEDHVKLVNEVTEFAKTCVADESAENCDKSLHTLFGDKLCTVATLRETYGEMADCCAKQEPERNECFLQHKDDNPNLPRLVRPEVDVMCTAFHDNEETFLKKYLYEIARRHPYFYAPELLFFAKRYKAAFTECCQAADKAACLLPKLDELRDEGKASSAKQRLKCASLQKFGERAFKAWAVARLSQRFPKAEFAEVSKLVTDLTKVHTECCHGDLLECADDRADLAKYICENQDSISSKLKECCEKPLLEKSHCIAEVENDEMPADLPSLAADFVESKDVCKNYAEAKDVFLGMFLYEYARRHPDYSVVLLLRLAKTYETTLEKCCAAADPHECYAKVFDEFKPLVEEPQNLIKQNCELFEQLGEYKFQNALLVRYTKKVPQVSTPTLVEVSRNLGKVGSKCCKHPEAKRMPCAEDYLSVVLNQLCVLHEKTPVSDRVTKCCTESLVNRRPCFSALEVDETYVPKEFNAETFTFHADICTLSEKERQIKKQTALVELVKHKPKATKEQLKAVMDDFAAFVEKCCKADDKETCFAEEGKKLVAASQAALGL
Experiment: Fluorescence quenching titration of HSA
Settings: logKb, T 308 K
measured-parameter: pKd
Just so you know, pKd here is -log10 of the concentration in molar units; reply with that number alone.

1) Cc1c2c(OCC(=O)N/N=C/c3ccccc3)nn(C)c(=O)c2c(C)n1-c1ccccc1 | 5.84
2) CCCCn1c(C)c2c(OCC(=O)N/N=C/c3ccccc3)nn(C)c(=O)c2c1C | 4.68

Now take the following compound into account.
Find the recorded pKd belonging to `Cc1c2c(OCC(=O)N/N=C/c3ccccc3)nn(C)c(=O)c2c(C)n1-c1cccc(Cl)c1` and report it.
4.58

###

Target: human serum albumin (HSA) (Homo sapiens, UniProt P02768)
Assay: Fluorescence quenching titration of HSA
Conditions: logKb, T 303 K
The entries below are paired with their reported pKd.
Field pKd (float): negative decimal logarithm of the concentration in molar.

These recorded examples may help you get a feel for the data.
1) Cc1c2c(OCC(=O)N/N=C/c3ccccc3)nn(C)c(=O)c2c(C)n1-c1ccccc1 | 6.31
2) Cc1c2c(OCC(=O)N/N=C/c3ccccc3)nn(C)c(=O)c2c(C)n1-c1cccc(Cl)c1 | 5.05

Below: the item to evaluate.
Which pKd value is on record for `CCCCn1c(C)c2c(OCC(=O)N/N=C/c3ccccc3)nn(C)c(=O)c2c1C` ?
4.95

###

Here, each record is paired with measured IC50 data.
Biological target: 15-LOX (Glycine max)
Sequence (P08170 1-839): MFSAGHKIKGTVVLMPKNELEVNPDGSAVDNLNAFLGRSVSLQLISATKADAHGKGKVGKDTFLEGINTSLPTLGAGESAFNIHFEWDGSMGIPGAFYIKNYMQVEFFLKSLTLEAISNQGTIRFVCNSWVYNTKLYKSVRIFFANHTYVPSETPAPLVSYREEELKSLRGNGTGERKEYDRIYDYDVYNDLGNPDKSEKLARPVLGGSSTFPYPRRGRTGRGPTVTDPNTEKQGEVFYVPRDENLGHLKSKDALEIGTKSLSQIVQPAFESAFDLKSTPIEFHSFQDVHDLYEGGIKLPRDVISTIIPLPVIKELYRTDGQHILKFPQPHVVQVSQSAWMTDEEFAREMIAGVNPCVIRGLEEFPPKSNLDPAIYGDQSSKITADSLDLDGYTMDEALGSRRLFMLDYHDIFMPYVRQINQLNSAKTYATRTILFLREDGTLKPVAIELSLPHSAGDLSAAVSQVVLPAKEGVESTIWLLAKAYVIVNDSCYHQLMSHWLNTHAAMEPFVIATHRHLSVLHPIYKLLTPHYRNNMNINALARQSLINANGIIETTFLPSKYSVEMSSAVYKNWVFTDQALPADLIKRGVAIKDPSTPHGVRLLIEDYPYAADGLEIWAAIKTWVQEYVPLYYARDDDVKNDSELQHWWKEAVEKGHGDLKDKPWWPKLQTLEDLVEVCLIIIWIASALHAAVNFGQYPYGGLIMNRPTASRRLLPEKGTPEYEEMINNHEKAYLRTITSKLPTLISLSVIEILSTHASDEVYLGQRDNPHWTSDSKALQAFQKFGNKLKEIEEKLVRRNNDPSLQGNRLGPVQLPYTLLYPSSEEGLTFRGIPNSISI
State just the number; it will be interpreted in µM.

1. Cc1ccc(/C=N/NC(=O)COc2nn(C)c(=O)c3c(C)n(-c4cccc(Cl)c4)c(C)c23)cc1 [Compound 7c] | 13.3
2. CCCCn1c(C)c2c(OCC(=O)N/N=C/c3ccc(C)cc3)nn(C)c(=O)c2c1C [Compound 7a] | 15.3

Give IC50 (15-LOX (Glycine max)) of the following compound: Cc1c2c(OCC(=O)N/N=C/c3ccccc3O)nn(C)c(=O)c2c(C)n1-c1cccc(Cl)c1 [Compound 6c]
14.7

Also Cc1c2c(OCC(=O)N/N=C/c3ccccc3)nn(C)c(=O)c2c(C)n1-c1ccccc1 [Compound 5b] , if possible.
13.5

Another compound: Cc1c2c(OCC(=O)N/N=C/c3ccccc3)nn(C)c(=O)c2c(C)n1-c1cccc(Cl)c1 [Compound 5c]
12.7

Where do these numbers come from? They come from paper PMC10383271.
